- target_of_assay: Abl kinase (Homo sapiens, UniProt P00519)
- Sequence (P00519 229-512): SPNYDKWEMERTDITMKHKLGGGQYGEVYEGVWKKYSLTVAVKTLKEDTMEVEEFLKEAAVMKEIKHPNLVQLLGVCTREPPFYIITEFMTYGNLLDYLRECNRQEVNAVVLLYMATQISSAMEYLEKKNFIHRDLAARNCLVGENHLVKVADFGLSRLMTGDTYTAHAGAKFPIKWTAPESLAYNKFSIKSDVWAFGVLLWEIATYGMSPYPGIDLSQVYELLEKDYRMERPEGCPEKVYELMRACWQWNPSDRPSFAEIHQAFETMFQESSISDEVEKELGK
- measurement_protocol: Abl kinase assay A1 (pyruvate kinase/lactate dehydrogenase coupled, spectrophotometric)
- Format: biochemical
- condition_parameters: Method A1; read-out: Abl Data (IC50)
- Method: IC50 values were calculated from a series of percent inhibition values determined at a range of inhibitor concentrations using software routines as implemented in the GraphPad Prism software package.
# log10(IC50) values compiled below
Use the decimal logarithm of IC50 (µM).

compound="CC(C)(C)c1cc(NC(=O)Nc2cccc(Cl)c2Cl)n(-c2ccc3c(c2)C[C@@H](C(=O)O)NC3)n1 [Example 186]" target_of_assay="Abl kinase (Homo sapiens, UniProt P00519)" result_value=-1.22
compound="CC(C)(C)c1cc(NC(=O)Nc2cccc(Cl)c2Cl)n(-c2cc(CN)c3ccccc3c2)n1 [Example 69]" target_of_assay="Abl kinase (Homo sapiens, UniProt P00519)" result_value=-0.85
compound="CC(C)(C)c1cc(NC(=O)Nc2cccc(Cl)c2Cl)n(-c2cccc(CCO)c2)n1 [Example 24]" target_of_assay="Abl kinase (Homo sapiens, UniProt P00519)" result_value=-0.08
compound="COc1cccc(-n2nc(C(C)(C)C)cc2NC(=O)Nc2cccc(Cl)c2Cl)c1 [Example 15]" target_of_assay="Abl kinase (Homo sapiens, UniProt P00519)" result_value=-0.41
compound="CC(C)(C)c1cc(NC(=O)Nc2cccc(Cl)c2Cl)n(-c2ccc(CO)cc2)n1 [Example 19]" target_of_assay="Abl kinase (Homo sapiens, UniProt P00519)" result_value=-0.21

input: Look up log10(IC50) of CC(=O)N1CCc2ccc(-n3nc(C(C)(C)C)cc3NC(=O)Nc3cccc(Cl)c3Cl)cc2C1 [Example 126] and report it.
output: -0.36

input: Quickly give me recorded log10(IC50) for CC(C)(C)c1cc(NC(=O)Nc2cccc(C#N)c2)n(-c2ccc3c(c2)CCN3)n1 [Example 111]
output: -0.21

input: Consider the compound CC(C)(C)c1cc(NC(=O)Nc2ccc(F)c(F)c2F)n(-c2cc(CC(=O)NCC(O)CO)c3ccccc3c2)n1 (centres unmarked) [Example 96] . State its measured log10(IC50).
output: -1.00

input: For the compound CC(C)(C)c1cc(NC(=O)Nc2cc(F)ccc2F)n(-c2cc(CC(=O)NC(CO)CO)c3ccccc3c2)n1 [Example 99] , give its reported log10(IC50).
output: -1.42

----------
- target_of_assay: B-Raf(V599E) kinase (Homo sapiens, UniProt P15056, V600E)
- Sequence (P15056 with tags, fused parts or gaps V600E): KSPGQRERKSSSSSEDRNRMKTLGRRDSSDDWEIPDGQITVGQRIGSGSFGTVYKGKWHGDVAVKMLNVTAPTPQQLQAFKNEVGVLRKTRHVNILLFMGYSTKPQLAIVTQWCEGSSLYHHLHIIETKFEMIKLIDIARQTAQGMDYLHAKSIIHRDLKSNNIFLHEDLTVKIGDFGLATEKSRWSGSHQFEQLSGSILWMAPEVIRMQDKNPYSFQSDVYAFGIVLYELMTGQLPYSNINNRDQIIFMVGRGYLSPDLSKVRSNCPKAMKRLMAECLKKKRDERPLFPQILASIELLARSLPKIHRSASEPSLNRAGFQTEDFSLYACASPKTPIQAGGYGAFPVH
- measurement_protocol: B-Raf(V599E) kinase assay B1 (construct 1, MEK1 substrate, coupled spectrophotometric)
- Type: biochemical
IC50 listing for selected compounds.
Report the value in nM with no unit label.

// below: answered compounds
compound="CC(C)(C)c1cc(NC(=O)Nc2cccc(Cl)c2Cl)n(-c2ccc(CCO)cc2)n1 [Example 45]" result_value=6.2
compound="CC(C)(C)c1cc(NC(=O)Nc2cccc(C#N)c2)n(-c2cc(CN)c3ccccc3c2)n1 [Example 73]" result_value=45
compound="CC(C)(C)c1cc(NC(=O)Nc2cccc(Cl)c2Cl)n(-c2cc(C(=O)O)c3ccccc3c2)n1 [Example 287]" result_value=41

input: Output measured IC50 for this item: CCOC(=O)c1cc(-n2nc(C(C)(C)C)cc2NC(=O)NC2CCCCC2)cc2ccccc12 [Example 288]
output: 56
